- TESTED ON: mouse GLP-1 receptor (mGLP-1r) (Mus musculus, UniProt O35659)
- Construct: expressed in transfected cells; host or cells: HEK293s or CHO cells
- Sequence (O35659 22-463): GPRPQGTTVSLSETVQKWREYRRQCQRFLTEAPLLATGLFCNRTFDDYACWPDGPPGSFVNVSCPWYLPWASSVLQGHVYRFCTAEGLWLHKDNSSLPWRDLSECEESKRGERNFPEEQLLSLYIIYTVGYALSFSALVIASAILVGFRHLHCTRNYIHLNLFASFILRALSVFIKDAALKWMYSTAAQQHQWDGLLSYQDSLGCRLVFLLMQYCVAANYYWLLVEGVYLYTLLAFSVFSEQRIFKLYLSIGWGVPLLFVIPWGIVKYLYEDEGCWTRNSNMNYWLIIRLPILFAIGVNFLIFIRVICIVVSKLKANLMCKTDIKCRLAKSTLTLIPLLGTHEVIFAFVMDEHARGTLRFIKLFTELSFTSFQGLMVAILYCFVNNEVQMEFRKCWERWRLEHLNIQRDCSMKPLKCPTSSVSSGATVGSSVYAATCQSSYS
- PROTOCOL DESCRIPTION: BSA-cAMP assay, cells expressing mouse GLP-1 receptor
- Format: cell-based
- CONDITION SUMMARY: Batch 1; BSA-cAMP assay; read-out: mGLP1r cAMP activity EC50
REPORTED METRIC: EC50 (nM)

1. IP385 (YSEGTFTSDYSIYLDRQAIDEFIAWLLKGGGGGGGSGGGGSGGGGSGGGGSACPPC)
2. IP395 (YSEGTFTSDYSKLLERQAIDEFIAHLLKGGGGGGGSGGGGSGGGGSGGGGSACPPC)
Smaller EC50 value? Options are 1 and 2 Refer to your chosen item by its label in the answer.
2
(2: 3.8 nM, 1: 30 nM)

Source: patent US20160185837A1
